Measured TGI by item
method: Growth inhibition of human COLO205 cells incubated for 48 hrs by sulforhodamine B assay
Assay type: functional
recorded_conditions: COLO 205, 48 h, read-out: TGI
Lab book: enter the figure in µM, no units written.

// known answers, use as guide
c1ccc2[nH]c(-c3ccc(Nc4nc(N5CCCCC5)nc(N5CCOCC5)n4)cc3)nc2c1
3.92
Fc1ccc(-c2nc(Nc3ccc(-c4nc5ccccc5[nH]4)cc3)nc(N3CCOCC3)n2)cc1
4.21
c1ccc(-c2nc(Nc3ccc(-c4nc5ccccc5[nH]4)cc3)nc(N3CCOCC3)n2)cc1
3.13

Prompt: Return reported TGI; argument: Clc1ccc(-c2nc(Nc3ccc(-c4nc5ccccc5[nH]4)cc3)nc(N3CCOCC3)n2)cc1
Completion: 1.07
